Listing: furin cleavage Z-score of selected sequences
target: furin, P09958; test: furin cleavage Z-score vs untreated control; higher = more cleavage, active = 3.5 or more, inactive = 1 or less, 8 variable residues between constant flanks; conditions: 30 min;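 also: purified furin at 1:10 enzyme:substrate in 50 mM HEPES pH 7.5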
Sequence (P09958 whole entry): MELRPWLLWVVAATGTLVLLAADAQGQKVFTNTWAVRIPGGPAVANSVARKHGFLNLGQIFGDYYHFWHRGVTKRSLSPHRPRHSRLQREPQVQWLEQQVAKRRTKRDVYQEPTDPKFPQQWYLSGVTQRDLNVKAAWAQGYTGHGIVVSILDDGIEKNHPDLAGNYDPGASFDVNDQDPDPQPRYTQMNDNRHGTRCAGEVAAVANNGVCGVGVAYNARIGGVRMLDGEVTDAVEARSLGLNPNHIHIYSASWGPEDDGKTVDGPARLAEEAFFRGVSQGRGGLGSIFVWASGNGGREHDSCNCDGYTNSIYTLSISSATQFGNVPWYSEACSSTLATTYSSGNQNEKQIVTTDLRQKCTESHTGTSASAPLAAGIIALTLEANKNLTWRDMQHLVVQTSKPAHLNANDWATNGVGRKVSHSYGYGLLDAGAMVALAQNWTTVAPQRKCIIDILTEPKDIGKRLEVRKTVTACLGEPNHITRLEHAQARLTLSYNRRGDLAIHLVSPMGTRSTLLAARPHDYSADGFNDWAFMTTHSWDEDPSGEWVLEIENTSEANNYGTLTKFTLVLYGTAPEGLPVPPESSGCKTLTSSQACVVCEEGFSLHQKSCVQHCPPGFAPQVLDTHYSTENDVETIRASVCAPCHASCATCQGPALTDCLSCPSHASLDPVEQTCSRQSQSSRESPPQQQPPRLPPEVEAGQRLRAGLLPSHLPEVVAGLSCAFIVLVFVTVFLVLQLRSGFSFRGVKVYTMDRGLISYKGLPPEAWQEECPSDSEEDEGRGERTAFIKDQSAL
Some of the results follow. The true hit rate is not given.

# entrySequence, furin cleavage Z-score
measured = [
    ("CATTPCSGSKAGNASASA [HC1934]", -0.455),
    ("CAITPCSAHLAGNASASA [HC2464]", -0.357),
    ("CAFDVVCCSMAGNASASA [HC2107]", -0.057),
    ("CAMVPCHRPSAGNASASA [HC2306]", 1.19),
    ("CAMTPCSAHLAGNASASA [HC2466]", -0.495),
    ("CASATRRKRHAGNASASA [FS-145]", 8.87),
    ("CAPRYRRKRHAGNASASA [FS-1552]", 10.8),
]

The origin of these recorded values is the supplement of paper PMC3545927.
